# System: KRas G12C mutant
# experiment: Ras GTP Binding Domain Inhibition Assay (Ras Superfamily Assay)
# study conditions: 20 μM compound, with SOS
# Source text: Biological Example 3: Ras GTP Binding Domain Inhibition Assay The assays described in Example 3 are collectively referred to as the “Ras Superfamily Assay” throughout this application. […] The small GTPases proteins: KRas wild type. KRas Q61H mutant, KRas G12C mutant, KRas G12D mutants, Rac-1, and Rho-A were expressed as His-tagged proteins. In addition, the Guanosine nucleotide Exchange Factor (GEF) Sos protein (residues 556-1049) was expressed as a His-tagged protein. […]
assay readout: KRas G12C mutant + SOS: % inh.

1. COc1cc(Nc2nc(-c3nccn3C)nn3cc(-c4cccnc4)c(C)c23)ncn1: A (A = 1-25% inhibition)
2. CO[C@H]1CC[C@@H](Nc2nc(-c3nccn3C)nn3cc(-c4ccn(C(C)C)n4)c(C)c23)C1 (racemic): 0 (0 = 0% inhibition)
3. Cn1ccnc1-c1nc(O)c2c(-c3ccccc3)ccn2n1: A (A = 1-25% inhibition)
4. COCCCNc1nc(-c2nccn2C)nn2cc(-c3cccc(OC)c3Cl)c(-c3ccccc3)c12: 0 (0 = 0% inhibition)
5. COc1cc(Nc2nc(-c3ccccn3)nn3cc(-c4ccn(C(C)C)n4)c(C)c23)ncn1: 0 (0 = 0% inhibition)

Q) Provide measured KRas G12C mutant + SOS: % inh. value, entry: COCC1CCN(c2nc(-c3ccccn3)nn3cc(-c4ccn(C(C)C)n4)c(-c4ccccc4)c23)C1 (racemic)
A) A (A = 1-25% inhibition)

----------
# assayed system: Rac-1 (Homo sapiens)
# Construct: made in house
# experiment: Ras GTP Binding Domain Inhibition Assay (Ras Superfamily Assay)
# study conditions: read-out: Rac-1: % inh.
assay readout: inhibition at 20 µM

Q) Respond only with inhibition at 20 µM recorded for CO[C@H]1C[C@H](Nc2nc(-c3nccn3C)nn3cc(-c4cccc5c4CCO5)c(-c4ccccc4)c23)C1
A) 1 to 25%

Q) Specify measured inhibition at 20 µM for Cc1c(-c2ccn(C)n2)cn2nc(-c3nccn3C)nc(Nc3cc(OC(C)C)ccn3)c12 .
A) 76 to 100%

Q) Give reported inhibition at 20 µM value for COCCO[C@H]1C[C@H](Nc2nc(-c3nccn3C)nn3cc(-c4ccn(C)n4)c(C)c23)C1
A) 0%

----------
# Test system: KRas G12D mutant
# experiment: Ras GTP Binding Domain Inhibition Assay (Ras Superfamily Assay)
# study conditions: 20 μM compound, without SOS
assay readout: KRas G12D mutant: % inh.

Sample answers from the record:
1) COc1cnc(Nc2nc(-c3nccn3C)nn3cc(-c4ccn(C)n4)c(C)c23)nc1.Cl: A (A = 1-25% inhibition)
2) COCC1CCN(c2nc(-c3nccn3C)nn3cc(-c4ccn(C(C)C)n4)c(C)c23)C1 (racemic): 0 (0 = 0% inhibition)
3) CO[C@H]1C[C@@H](Nc2nc(-c3nccn3C)nn3cc(-c4ccn(C)n4)c(C)c23)C1: A (A = 1-25% inhibition)
4) COc1cccnc1Nc1nc(-c2nccn2C)nn2cc(-c3ccn(C)n3)c(C)c12: A (A = 1-25% inhibition)

Kindly review the next compound as well.
Q) Specify KRas G12D mutant: % inh. for COCCNc1nc(-c2nccn2C)nn2cc(-c3ccn(C(C)C)n3)c(C(C)C)c12 and stop.
A) 0 (0 = 0% inhibition)

----------
# assayed system: Rac-1 (Homo sapiens)
# Construct: made in house
# experiment: Ras GTP Binding Domain Inhibition Assay (Ras Superfamily Assay)
# study conditions: read-out: Rac-1: % inh.
Please respond with reported inhibition at 20 µM for every item in the list.

Q) Respond only with inhibition at 20 µM recorded for COc1ccnc(Nc2nc(-c3nccn3C)nn3cc(-c4ccn(C(C)C)n4)c(C)c23)c1
A) 76 to 100%

Q) Identify inhibition at 20 µM associated with the compound Cc1c(-c2ccn(C(C)C)n2)cn2nc(-c3nccn3C)nc(Nc3cnccn3)c12
A) 50 to 75%

Q) Look up and report measured inhibition at 20 µM for this entry: Cc1c(-c2ccn(C)n2)cn2nc(-c3nccn3C)nc(Nc3cc(N4CCOCC4)ccn3)c12
A) 76 to 100%

Q) Please look at this compound and report its inhibition at 20 µM: Cc1c(-c2ccn(C)n2)cn2nc(-c3nccn3C)nc(Nc3cc4c(cn3)CCO4)c12
A) 76 to 100%

Q) Report measured inhibition at 20 µM; entry is CO[C@H]1C[C@H](Nc2nc(-c3nccn3C)nn3cc(-c4ccncc4)c(C)c23)C1
A) 0%

Q) Name the recorded inhibition at 20 µM of the item COc1ccc(-c2cn3nc(-c4nccn4C)nc(Nc4cc(OC)ncn4)c3c2C)cn1 in your answer.
A) 76 to 100%

Q) Indicate its recorded inhibition at 20 µM; the compound in question is COc1cc(-c2cn3nc(-c4nccn4C)nc(Nc4cc(OC)ncn4)c3c2C)ccn1
A) 26 to 49%

Q) Fill in reported inhibition at 20 µM for this entry: CO[C@H]1C[C@H](Nc2nc(-c3nccn3C)nn3cc(-c4ccccc4)c(-c4ccccc4)c23)C1
A) 1 to 25%

Q) Fill in reported inhibition at 20 µM for this entry: Cc1c(-c2ccn(C)n2)cn2nc(-c3nccn3C)nc(Nc3cc(-c4ccccc4)[nH]n3)c12
A) 76 to 100%

Q) Please list inhibition at 20 µM recorded for the compound Cc1c(-c2ccn(C(C)C)n2)cn2nc(-c3nccn3C)nc(Nc3ncc[nH]3)c12
A) 50 to 75%

Q) Give reported inhibition at 20 µM value for CO[C@H]1C[C@@H](Nc2nc(-c3nccn3C)nn3cc(-c4cccnc4)c(C)c23)C1
A) 50 to 75%

Q) Report inhibition at 20 µM for Cc1c(-c2ccn(C(C)C)n2)cn2nc(-c3nccn3C)nc(Nc3nccc(OCCO)n3)c12
A) 76 to 100%

Q) Name the recorded inhibition at 20 µM of the item CO[C@H]1C[C@H](Nc2nc(-c3nccn3C)nn3cc(-c4cccnc4)c(-c4ccccc4)c23)C1 in your answer.
A) 1 to 25%

Q) Please report inhibition at 20 µM for the following compound: COc1cnc(Nc2nc(-c3nccn3C)nn3cc(-c4ccn(C(C)C)n4)c(C)c23)cn1
A) 76 to 100%

Q) Provide only the value of recorded inhibition at 20 µM for COc1cccc(-c2cn3nc(-c4nccn4C)nc(N[C@@H]4CC[C@H]4OC)c3c2-c2ccccc2)c1C (racemic)
A) 1 to 25%

Q) Specify reported inhibition at 20 µM for the compound shown: CO[C@H]1C[C@H](Nc2nc(-c3nccn3C)nn3cc(-c4ccc(OCCN)cc4)c(-c4ccccc4)c23)C1.Cl [Compound 208, hydrochloride salt]
A) 26 to 49%

Q) Look up inhibition at 20 µM of COc1ccnc(Nc2nc(-c3nccn3C)nn3cc(-c4ccn(C)n4)c(C(=O)N4CCOCC4)c23)c1 and report it.
A) 76 to 100%

Q) Give me measured inhibition at 20 µM, please, for this compound: COc1cc(-c2cn3nc(-c4nccn4C)nc(N[C@@H]4CC[C@H](OC)C4)c3c2C)ccn1 (racemic)
A) 1 to 25%

Q) For the compound COc1ccnc(Nc2nc(-c3nccn3C)nn3cc(-c4ccn(C)n4)c(C(=O)N4CCCC4)c23)c1 , report inhibition at 20 µM.
A) 76 to 100%

Q) Supply reported inhibition at 20 µM belonging to this compound: Cc1c(-c2ccn(C)n2)cn2nc(-c3nccn3C)nc(Nc3ccc(C(C)(C)O)cn3)c12
A) 76 to 100%

Q) Look up inhibition at 20 µM of COc1cccc(-c2cn3nc(-c4nccn4C)nc(N[C@H]4C[C@H](OC)C4)c3c2-c2ccccn2)c1F and report it.
A) 50 to 75%

Q) Return value of inhibition at 20 µM for input Cc1c(-c2ccn(C)n2)cn2nc(-c3nccn3C)nc(Nc3ccc(C(F)F)cn3)c12 , no commentary.
A) 76 to 100%

Q) Check the records and state inhibition at 20 µM for CO[C@H]1CC[C@@H](Nc2nc(-c3nccn3C)nn3cc(-c4cccnc4)c(C)c23)C1 (racemic)
A) 1 to 25%

Q) Entry COc1cccnc1Nc1nc(-c2nccn2C)nn2cc(-c3ccn(C(C)C)n3)c(C)c12 needs its inhibition at 20 µM filled in; supply it.
A) 76 to 100%

Q) Give me measured inhibition at 20 µM, please, for this compound: Cc1c(-c2ccn(C(C)C)n2)cn2nc(-c3nccn3C)nc(Nc3nccc(OCCN(C)C)n3)c12
A) 76 to 100%

Q) Identify measured inhibition at 20 µM corresponding to Cc1c(-c2ccn(C3CC3)n2)cn2nc(-c3nccn3C)nc(Nc3cc(OC4CC4)ccn3)c12
A) 76 to 100%

Q) For Cc1c(-c2ccn(C(C)C)n2)cn2nc(-c3ccccn3)nc(O)c12 , write its inhibition at 20 µM.
A) 0%

Q) Please supply the value of reported inhibition at 20 µM for the item COc1ccnc(Oc2nc(-c3nccn3C)nn3cc(-c4ccn(C)n4)c(C)c23)c1
A) 26 to 49%

Q) For the compound COc1cccc(Nc2nc(-c3nccn3C)nn3cc(-c4ccn(C(C)C)n4)c(-c4ccccc4)c23)n1 , give its measured inhibition at 20 µM value.
A) 1 to 25%
